The measured values listed here are drawn from ChEMBL document CHEMBL4433232.

target: TRAF2 and NCK-interacting protein kinase (Homo sapiens); experiment: Inhibition of human 6His-TEV-TNIK(1 to 325) expressed in baculovirus-infected sf21 cells using LRRKtide as substrate preincubated for 30 mins followed by substrate addition and measured after 75 to 90 mins by ADP-Glo Reagent based method; conditions: read-out: pIC50 (converted)
Sequence (Q9UKE5 whole entry): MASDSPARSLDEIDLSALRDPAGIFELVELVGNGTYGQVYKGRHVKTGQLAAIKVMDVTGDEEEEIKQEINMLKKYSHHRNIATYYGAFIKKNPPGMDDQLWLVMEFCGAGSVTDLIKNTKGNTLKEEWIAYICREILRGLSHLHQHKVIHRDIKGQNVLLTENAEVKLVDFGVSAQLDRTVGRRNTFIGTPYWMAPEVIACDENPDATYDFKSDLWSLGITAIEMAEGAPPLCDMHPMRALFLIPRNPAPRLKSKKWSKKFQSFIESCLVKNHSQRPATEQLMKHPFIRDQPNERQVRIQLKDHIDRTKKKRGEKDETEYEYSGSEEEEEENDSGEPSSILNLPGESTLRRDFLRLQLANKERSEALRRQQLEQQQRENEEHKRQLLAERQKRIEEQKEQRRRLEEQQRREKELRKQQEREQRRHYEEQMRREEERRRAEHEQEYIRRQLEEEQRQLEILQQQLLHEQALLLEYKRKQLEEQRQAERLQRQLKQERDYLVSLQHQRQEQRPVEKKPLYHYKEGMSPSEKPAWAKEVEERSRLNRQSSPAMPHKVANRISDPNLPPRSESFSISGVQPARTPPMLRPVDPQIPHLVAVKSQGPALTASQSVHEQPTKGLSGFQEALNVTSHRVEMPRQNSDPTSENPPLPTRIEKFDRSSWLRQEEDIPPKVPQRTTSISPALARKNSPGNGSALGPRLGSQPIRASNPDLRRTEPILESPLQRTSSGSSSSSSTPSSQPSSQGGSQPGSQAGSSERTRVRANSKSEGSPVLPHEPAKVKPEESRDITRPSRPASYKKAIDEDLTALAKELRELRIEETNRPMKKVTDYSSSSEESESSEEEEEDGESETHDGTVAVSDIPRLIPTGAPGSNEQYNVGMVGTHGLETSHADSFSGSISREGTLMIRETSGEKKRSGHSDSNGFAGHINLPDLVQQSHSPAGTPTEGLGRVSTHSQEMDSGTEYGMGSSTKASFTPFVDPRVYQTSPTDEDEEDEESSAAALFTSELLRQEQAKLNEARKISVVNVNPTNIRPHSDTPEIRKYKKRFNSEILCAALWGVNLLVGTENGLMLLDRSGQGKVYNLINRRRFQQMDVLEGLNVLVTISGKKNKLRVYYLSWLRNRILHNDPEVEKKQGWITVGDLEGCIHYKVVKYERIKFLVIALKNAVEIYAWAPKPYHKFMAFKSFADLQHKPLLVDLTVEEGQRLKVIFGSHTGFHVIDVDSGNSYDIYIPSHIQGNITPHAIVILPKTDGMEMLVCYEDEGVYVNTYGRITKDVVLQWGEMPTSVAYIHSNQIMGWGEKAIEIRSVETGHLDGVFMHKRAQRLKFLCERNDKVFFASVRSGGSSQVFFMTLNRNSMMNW
Assay Metric: log10(IC50) (log10 of the value in nM)
Values reflect log10 of reported IC50 (nM).

## Task Supply log10(IC50) value. Item: "CC(C)(O)c1cnc(N)c2nc(-c3ccnc(F)c3)ccc12"
## Result 2.10

## Task Given "Nc1ncc(Br)c2ccc(-c3ccnc(F)c3)nc12" , respond with its log10(IC50).
## Result 1.10

## Task Output log10(IC50) of "Nc1ncnc2ccc(-c3ccnc(F)c3)nc12"
## Result 2.20

## Task Answer with reported log10(IC50) of "CS(=O)(=O)c1ccc(-c2cc(-c3ccc(O)cc3)cnc2N)cc1"
## Result 1.00

## Task Answer with the recorded log10(IC50) for the compound listed here: "CN(C)c1ncc(-c2ccc(O)cc2)cc1-c1ccc(S(C)(=O)=O)cc1"
## Result 3.60

## Task For the compound "CC(C)NC(=O)c1ccc(-c2cnc(N)c(-c3ccc(C#N)cc3)c2)cc1" , give its measured log10(IC50) value.
## Result 1.90

## Task Assign log10(IC50) to the following record: "CC(C)NC(=O)c1ccc(-c2cnc(N(C)C)c(-c3ccc(C#N)cc3)c2)cc1"
## Result 4.40

## Task Tell me log10(IC50) reported for "Fc1cc(-c2ccc3ccncc3n2)ccn1"
## Result 4.20

----------
target: Mitogen-activated protein kinase kinase kinase kinase 4 (Homo sapiens, UniProt O95819); assay: Inhibition of human 6His-TEV-SHM-MAP4K4(2 to 328)-GNS expressed in baculovirus-infected sf21 cells using LRRKtide as substrate preincubated for 30 mins followed by substrate addition and measured after 75 to 90 mins by ADP-Glo Reagent based method; details: read-out: pIC50 (converted)
Sequence (O95819 whole entry): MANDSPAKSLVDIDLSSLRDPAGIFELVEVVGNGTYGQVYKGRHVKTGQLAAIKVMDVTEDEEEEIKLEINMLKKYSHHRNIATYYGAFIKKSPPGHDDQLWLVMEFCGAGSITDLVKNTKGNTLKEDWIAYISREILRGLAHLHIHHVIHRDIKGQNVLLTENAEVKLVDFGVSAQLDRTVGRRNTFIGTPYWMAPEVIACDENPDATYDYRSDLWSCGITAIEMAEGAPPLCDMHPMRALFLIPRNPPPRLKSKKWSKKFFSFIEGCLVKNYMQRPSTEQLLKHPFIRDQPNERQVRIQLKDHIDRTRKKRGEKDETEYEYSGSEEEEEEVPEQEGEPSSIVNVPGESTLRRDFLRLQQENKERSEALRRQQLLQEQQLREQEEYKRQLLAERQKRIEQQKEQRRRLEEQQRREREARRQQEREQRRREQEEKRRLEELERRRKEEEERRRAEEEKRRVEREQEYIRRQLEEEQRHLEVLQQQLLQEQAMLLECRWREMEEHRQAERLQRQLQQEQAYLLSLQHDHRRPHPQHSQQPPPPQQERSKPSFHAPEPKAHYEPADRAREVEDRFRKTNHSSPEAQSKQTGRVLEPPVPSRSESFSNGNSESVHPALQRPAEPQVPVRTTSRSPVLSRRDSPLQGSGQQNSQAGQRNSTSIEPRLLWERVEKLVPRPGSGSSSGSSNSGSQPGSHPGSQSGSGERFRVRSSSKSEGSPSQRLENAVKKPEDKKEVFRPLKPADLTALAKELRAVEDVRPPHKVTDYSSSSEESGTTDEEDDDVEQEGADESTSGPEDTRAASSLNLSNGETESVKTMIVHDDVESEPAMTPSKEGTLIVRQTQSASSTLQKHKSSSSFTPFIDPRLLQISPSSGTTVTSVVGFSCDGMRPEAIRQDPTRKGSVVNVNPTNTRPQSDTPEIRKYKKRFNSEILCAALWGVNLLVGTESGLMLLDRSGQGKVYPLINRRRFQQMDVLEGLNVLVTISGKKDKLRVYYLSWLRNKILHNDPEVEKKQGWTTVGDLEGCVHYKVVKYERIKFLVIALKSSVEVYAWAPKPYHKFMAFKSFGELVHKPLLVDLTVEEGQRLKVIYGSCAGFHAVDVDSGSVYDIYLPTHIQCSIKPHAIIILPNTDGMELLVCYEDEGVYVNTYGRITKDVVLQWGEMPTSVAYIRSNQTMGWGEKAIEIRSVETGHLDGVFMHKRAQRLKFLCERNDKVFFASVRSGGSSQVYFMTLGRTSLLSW
What IC50 was measured for each of the following?
Write your answer as a measured quantity: the number, then the unit.

## Task Identify measured IC50 obtained with Mitogen-activated protein kinase kinase kinase kinase 4 (Homo sapiens, UniProt O95819) for "Nc1ncnc2ccc(-c3ccnc(F)c3)nc12" .
## Result 0.158 µM

## Task Find the measured IC50 of "Nc1ncc(Br)c2ccc(-c3ccnc(F)c3)nc12" with Mitogen-activated protein kinase kinase kinase kinase 4 (Homo sapiens, UniProt O95819) as test system.
## Result 0.0316 µM

## Task Give reported IC50 for "CC(C)(O)c1cnc(N)c2nc(-c3ccnc(F)c3)ccc12" (Mitogen-activated protein kinase kinase kinase kinase 4 (Homo sapiens, UniProt O95819))
## Result 0.158 µM

## Task Answer briefly: IC50 recorded on Mitogen-activated protein kinase kinase kinase kinase 4 (Homo sapiens, UniProt O95819) for "CN(C)c1ncc(-c2ccc(O)cc2)cc1-c1ccc(S(C)(=O)=O)cc1"
## Result 15.8 µM

## Task // fetch IC50 for "CC(C)NC(=O)c1ccc(-c2cnc(N(C)C)c(-c3ccc(C#N)cc3)c2)cc1" ; system: Mitogen-activated protein kinase kinase kinase kinase 4 (Homo sapiens, UniProt O95819)
## Result 20 µM

## Task Quote IC50 with test system Mitogen-activated protein kinase kinase kinase kinase 4 (Homo sapiens, UniProt O95819) for "CC(C)NC(=O)c1ccc(-c2cnc(N)c(-c3ccc(C#N)cc3)c2)cc1"
## Result 0.0126 µM

## Task Provide IC50, system Mitogen-activated protein kinase kinase kinase kinase 4 (Homo sapiens, UniProt O95819), entry "Fc1cc(-c2ccc3ccncc3n2)ccn1"
## Result 20 µM

----------
target: Misshapen-like kinase 1 (Homo sapiens, UniProt Q8N4C8); assay: Inhibition of human 6His-TEV-Avi-MINK1(1 to 328)-GNS expressed in baculovirus-infected sf21 cells using LRRKtide as substrate preincubated for 30 mins followed by substrate addition and measured after 75 to 90 mins by ADP-Glo Reagent based method; settings: read-out: IC50
Sequence (Q8N4C8 whole entry): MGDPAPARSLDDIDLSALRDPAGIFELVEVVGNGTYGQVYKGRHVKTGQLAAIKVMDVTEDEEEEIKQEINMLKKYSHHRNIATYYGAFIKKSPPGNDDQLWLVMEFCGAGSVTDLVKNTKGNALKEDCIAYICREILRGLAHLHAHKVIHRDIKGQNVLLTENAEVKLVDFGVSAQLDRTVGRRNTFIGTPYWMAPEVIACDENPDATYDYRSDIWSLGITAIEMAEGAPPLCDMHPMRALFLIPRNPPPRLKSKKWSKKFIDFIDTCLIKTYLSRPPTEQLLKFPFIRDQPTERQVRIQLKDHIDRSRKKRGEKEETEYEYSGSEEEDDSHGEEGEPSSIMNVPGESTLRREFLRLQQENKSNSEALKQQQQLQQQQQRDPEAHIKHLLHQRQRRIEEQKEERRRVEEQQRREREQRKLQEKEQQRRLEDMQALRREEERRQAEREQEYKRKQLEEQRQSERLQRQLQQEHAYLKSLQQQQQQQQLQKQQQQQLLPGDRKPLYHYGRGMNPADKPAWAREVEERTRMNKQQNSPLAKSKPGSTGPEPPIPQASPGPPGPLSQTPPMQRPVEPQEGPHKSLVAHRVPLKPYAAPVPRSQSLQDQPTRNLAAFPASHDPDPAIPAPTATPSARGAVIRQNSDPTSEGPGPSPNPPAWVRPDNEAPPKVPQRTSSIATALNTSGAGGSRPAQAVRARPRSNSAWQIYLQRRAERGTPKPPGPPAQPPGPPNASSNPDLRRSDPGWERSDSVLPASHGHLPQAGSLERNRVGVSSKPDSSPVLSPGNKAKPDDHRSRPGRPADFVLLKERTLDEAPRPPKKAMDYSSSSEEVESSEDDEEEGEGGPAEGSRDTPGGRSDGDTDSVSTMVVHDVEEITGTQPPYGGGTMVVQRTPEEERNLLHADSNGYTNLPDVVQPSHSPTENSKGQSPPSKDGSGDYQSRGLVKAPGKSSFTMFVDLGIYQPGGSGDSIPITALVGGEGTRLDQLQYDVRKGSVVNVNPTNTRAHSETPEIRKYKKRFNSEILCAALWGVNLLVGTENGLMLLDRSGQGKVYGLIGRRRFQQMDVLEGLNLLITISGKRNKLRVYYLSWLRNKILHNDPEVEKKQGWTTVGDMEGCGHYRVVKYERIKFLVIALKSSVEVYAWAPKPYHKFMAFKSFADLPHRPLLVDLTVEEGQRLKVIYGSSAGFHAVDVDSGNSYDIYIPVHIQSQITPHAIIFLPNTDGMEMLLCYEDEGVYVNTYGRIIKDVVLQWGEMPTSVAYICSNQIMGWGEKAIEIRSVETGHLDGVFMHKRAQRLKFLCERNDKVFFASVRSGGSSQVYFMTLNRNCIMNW
Assay Metric: IC50

## Task Hello, please tell me recorded IC50 for this one: "Nc1ncnc2ccc(-c3ccnc(F)c3)nc12"
## Result 150 to 200 nM

----------
molecular target: Mitogen-activated protein kinase kinase kinase kinase 4 (Homo sapiens); test: Inhibition of human 6His-TEV-SHM-MAP4K4(2 to 328)-GNS expressed in baculovirus-infected sf21 cells using LRRKtide as substrate preincubated for 30 mins followed by substrate addition and measured after 75 to 90 mins by ADP-Glo Reagent based method; conditions: read-out: IC50
Assay Metric: IC50

## Task Write IC50 of "Nc1ncnc2ccc(-c3ccnc(F)c3)nc12" ; system used: Mitogen-activated protein kinase kinase kinase kinase 4 (Homo sapiens)
## Result 150 to 200 nM

----------
Field: pIC50. Provide a value for each of the molecules that follow.
biological target: TRAF2 and NCK-interacting protein kinase (Homo sapiens); assay: Inhibition of human full length TNIK(1-1360)-G5-Avi-6His-Flag expressed in baculovirus-infected sf21 cells using His6-SMAD1 as substrate preincubated for 30 mins followed by substrate addition and measured after 120 mins by ADP-Glo Reagent based method
Give only the number. pIC50 is defined as minus log10 of concentration in molar units.

## Task Tell us which pIC50 value is on record for "CN(C)c1ncc(-c2ccc(O)cc2)cc1-c1ccc(S(C)(=O)=O)cc1"
## Result 5.40

## Task Retrieve pIC50 measured for "CS(=O)(=O)c1ccc(-c2cc(-c3ccc(O)cc3)cnc2N)cc1" and print it.
## Result 8.00

## Task Report pIC50, nothing else, for this molecule: "Nc1ncc(Br)c2ccc(-c3ccnc(F)c3)nc12"
## Result 8.10

## Task Query pIC50 for "CC(C)NC(=O)c1ccc(-c2cnc(N(C)C)c(-c3ccc(C#N)cc3)c2)cc1"
## Result 4.60

## Task Give the value of pIC50 reported for the following: "Fc1cc(-c2ccc3ccncc3n2)ccn1"
## Result 5.30

## Task State its pIC50: "CC(C)NC(=O)c1ccc(-c2cnc(N)c(-c3ccc(C#N)cc3)c2)cc1"
## Result 7.40

----------
biological target: UniProt Q8N4C8; assay: Inhibition of human full length MINK1(1-1332)-G5-Avi-6His-Flag expressed in baculovirus-infected sf21 cells using His6-SMAD1 as substrate preincubated for 30 mins followed by substrate addition and measured after 120 mins by ADP-Glo Reagent based method
Field: pIC50. Provide a value for each of the compounds that follow.
As a rule, pIC50 stands for the negative log10 of the concentration, concentration in M.

## Task Assign pIC50 to the following record: "CN(C)c1ncc(-c2ccc(O)cc2)cc1-c1ccc(S(C)(=O)=O)cc1"
## Result 5.20

## Task Give pIC50 for the following compound: "Fc1cc(-c2ccc3ccncc3n2)ccn1"
## Result 5.40

## Task Quickly give me recorded pIC50 for "CC(C)NC(=O)c1ccc(-c2cnc(N(C)C)c(-c3ccc(C#N)cc3)c2)cc1"
## Result 4.20

## Task Quick one: give measured pIC50 for "Nc1ncc(Br)c2ccc(-c3ccnc(F)c3)nc12"
## Result 7.90

## Task Complete the entry with pIC50 for "CS(=O)(=O)c1ccc(-c2cc(-c3ccc(O)cc3)cnc2N)cc1"
## Result 7.80

## Task Using known records, supply pIC50 for "CC(C)NC(=O)c1ccc(-c2cnc(N)c(-c3ccc(C#N)cc3)c2)cc1"
## Result 7.40

----------
target: TRAF2 and NCK-interacting protein kinase (Homo sapiens, UniProt Q9UKE5); assay: Inhibition of human TNIK in human iPSC derived neuronal progenitor cells assessed as reduction in motif phosphorylation at 10 uM after 6 hrs with presence of okadaic acid by Western blot analysis
Sequence (Q9UKE5 whole entry, looked up): as the sequence (Q9UKE5 whole entry) above
Calls of active or inactive are those of the source. No cut-off for these calls is given here.
Respond only with the outcome that fits, drawn from yes (active), no (inactive)

## Task Call for entry "CC(C)NC(=O)c1ccc(-c2cnc(N(C)C)c(-c3ccc(C#N)cc3)c2)cc1" :
## Result no

## Task Hi, sorry to bother you, what did the test record for "CN(C)c1ncc(-c2ccc(O)cc2)cc1-c1ccc(S(C)(=O)=O)cc1" ?
## Result no

## Task Hi team, can someone confirm the assay call for "Nc1ncc(Br)c2ccc(-c3ccnc(F)c3)nc12" ?
## Result yes

## Task Dear colleague, could you share the recorded outcome for "Fc1cc(-c2ccc3ccncc3n2)ccn1" when you have a moment?
## Result no

## Task # outcome recorded in this test, key = "CS(=O)(=O)c1ccc(-c2cc(-c3ccc(O)cc3)cnc2N)cc1"
## Result yes

## Task Just curious, what result did "CC(C)NC(=O)c1ccc(-c2cnc(N)c(-c3ccc(C#N)cc3)c2)cc1" get here?
## Result yes

----------
Give IC50 for every item shown.
biological target: TRAF2 and NCK-interacting protein kinase (Homo sapiens); assay: Inhibition of human full length TNIK in HEK293 cells co-transfected with full length SMAD1 incubated for 2 hrs by ELISA; type: cell-based; settings: read-out: IC50
Enter your answer as a number in nM; do not include the unit.

## Task Supply recorded IC50 for "Nc1ncc(Br)c2ccc(-c3ccnc(F)c3)nc12" here.
## Result 1130

## Task Please report IC50 for the following molecule: "CS(=O)(=O)c1ccc(-c2cc(-c3ccc(O)cc3)cnc2N)cc1"
## Result 470

## Task Give me measured IC50, please, for this molecule: "CC(C)NC(=O)c1ccc(-c2cnc(N)c(-c3ccc(C#N)cc3)c2)cc1"
## Result 930
